Assay: BSK_hDFCGF_Proliferation: Cell Proliferation Assessment in the BioMAP Diversity Plus: hDFCGF Assay (AID 2283059);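 further: curves fitted for both rise and fall of signal versus DMSO baseline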
Conditions: primary human foreskin fibroblasts
The source made the active and inactive calls. How the source made its calls: active means hit-call score of the fitted dose curve at least 0.9, where 1 is the maximum; inactive means score below 0.9.
Please reply with one of these outcomes: label 1 (active), label 0 (inactive)

Please review the following examples before continuing.
>>> assigned_label("Oc1cccc(-c2ccccc2)c1")
"label 1"
>>> assigned_label("CCOP(=O)(OCC)OC(=CCl)c1ccc(Cl)cc1Cl")
"label 1"

## Task Outcome logged for OC(Cc1ccccc1Cl)(Cn1[nH]cnc1=S)C1(Cl)CC1 (centres undefined) in this assay:
## Result label 1

## Task Call for entry Oc1c(Cl)cc(Cl)cc1Cl :
## Result label 0

## Task Per the records of this test, what outcome belongs to OCCCCO ?
## Result label 0

## Task Given CCCCCCCCCCCCc1cccc(S(=O)(=O)O)c1 , state the outcome it received in this test.
## Result label 1

## Task Assay result, entry c1ccc2sc(SNC3CCCCC3)nc2c1 — outcome?
## Result label 0

## Task Kindly provide the recorded test outcome for the following molecule: CCC(C)(C#N)N=NC(C)(C#N)CC (centres undefined)
## Result label 0

## Task Recorded test call requested for [Cl][Sn]([c]1ccccc1)([c]1ccccc1)[c]1ccccc1
## Result label 1

## Task So what was the verdict on Cc1cc(Cl)ccc1N in this test?
## Result label 1

## Task For O=[N+]([O-])c1ccc(Nc2ccccc2)cc1 , what call appears in the results of this test?
## Result label 0

## Task Look up the recorded call for CC(C)(C)c1ccccc1O in this test.
## Result label 0

## Task Dear all, I need the recorded test outcome for Cc1ccccc1OP(=O)(Oc1ccccc1C)Oc1ccccc1C , thank you.
## Result label 1

## Task Record request — test call for C=CC(Cl)CCl (centres undefined)
## Result label 1

## Task Dear all, I need the recorded test outcome for CC(C)(C)c1cc([N+](=O)[O-])cc(C(C)(C)C)c1O , thank you.
## Result label 0

## Task Tell me the recorded outcome of this test for O=S(=O)(C(Cl)(Cl)Cl)C(Cl)(Cl)Cl .
## Result label 1
